Hello, the source for this data is patent US20240383954A1, in case you need it.

# tested target: IL-23R (Homo sapiens, UniProt Q5VWK5)
# Sequence (Q5VWK5 24-629): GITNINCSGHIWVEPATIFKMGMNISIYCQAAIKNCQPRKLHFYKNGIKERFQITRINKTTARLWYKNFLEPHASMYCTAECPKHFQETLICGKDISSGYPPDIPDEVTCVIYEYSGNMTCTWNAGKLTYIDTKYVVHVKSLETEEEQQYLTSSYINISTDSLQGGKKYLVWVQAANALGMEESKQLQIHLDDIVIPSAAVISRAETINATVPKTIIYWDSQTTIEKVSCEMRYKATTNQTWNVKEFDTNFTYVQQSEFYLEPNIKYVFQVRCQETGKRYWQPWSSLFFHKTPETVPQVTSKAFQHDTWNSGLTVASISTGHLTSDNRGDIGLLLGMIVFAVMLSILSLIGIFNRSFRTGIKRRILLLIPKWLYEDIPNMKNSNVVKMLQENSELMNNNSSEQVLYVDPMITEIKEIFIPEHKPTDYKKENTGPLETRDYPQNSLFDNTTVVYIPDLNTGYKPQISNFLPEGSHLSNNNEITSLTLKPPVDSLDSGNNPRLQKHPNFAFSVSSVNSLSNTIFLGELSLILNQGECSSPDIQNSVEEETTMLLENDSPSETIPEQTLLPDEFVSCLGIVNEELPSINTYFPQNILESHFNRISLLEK
# experiment summary: cell-based
# reported conditions: PBMC pSTAT3 IC50 (nM), PBMCs from healthy donors, IL-23 5 ng/mL, 30 minutes, phosphorylated STAT3
Positions of bridges follow the written chain, without caps; N, C: chain ends. Non-standard residues stand in square brackets, D forms with d. Residues, ends and D or L forms follow the SMILES beside them. 2Nal = N[C@@H](Cc1ccc2ccccc2c1)C(=O)O; AEF = NCCOc1ccc(C[C@H](N)C(=O)O)cc1; αMeF = C[C@](N)(Cc1ccccc1)C(=O)O; Pen = CC(C)(S)[C@H](N)C(=O)O; αMeK = C[C@](N)(CCCCN)C(=O)O
Give measured IC50 for each item. Keep answers brief.

Provide IC50, system IL-23R (Homo sapiens, UniProt Q5VWK5), entry CC(=O)NCCCC[C@@H]1NC(=O)[C@H](Cc2c[nH]c3ccccc23)NC(=O)[C@H]([C@@H](C)O)NC(=O)[C@H](CCC(N)=O)NC(=O)[C@@H](NC(C)=O)C(C)(C)SSC(C)(C)[C@@H](C(=O)N[C@@H](Cc2ccc(OCCN)cc2)C(=O)N[C@@H](Cc2ccc3ccccc3c2)C(=O)N[C@@](C)(CCCCN)C(=O)N[C@@H](CCCCNC(C)=O)C(=O)N[C@@H](CC(N)=O)C(=O)N[C@@](C)(Cc2ccccc2)C(N)=O)NC1=O [Compound 82] (Ac-[Pen]QTWK(Ac)[Pen][AEF][2Nal][αMeK]K(Ac)N[αMeF]-NH2; disulfide 1-6) 54 nM

Write IC50 of CCC(=O)NCCCC[C@H](NC(=O)C1(NC(=O)[C@H](Cc2ccc3ccccc3c2)NC(=O)[C@H](Cc2ccc(OCCN)cc2)NC(=O)[C@H]2NC(=O)[C@H](CCC(N)=O)NC(=O)[C@H](Cc3c[nH]c4ccccc34)NC(=O)[C@H]([C@@H](C)O)NC(=O)[C@H](CCC(N)=O)NC(=O)[C@@H](NC(=O)[C@@H](CCCNC(=N)N)NC(C)=O)C(C)(C)SSC2(C)C)CCOCC1)C(=O)N[C@@H](CC(N)=O)C(=O)NC1(C(N)=O)CCOCC1 ; system used: IL-23R (Homo sapiens, UniProt Q5VWK5) 18 nM

###

# tested target: IL-23R (Homo sapiens, UniProt Q5VWK5);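 note: cryopreserved PBMCs stimulated at 37 °C in 5% CO2, then lysed, with phosphorylated STAT3 quantified in lysates using a phospho-STAT panel kit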
# experiment summary: cell-based
# reported conditions: PBMC pSTAT3 IC50 (nM), PBMCs from healthy donors, IL-23 5 ng/mL, 30 minutes, phosphorylated STAT3
Starred links: 1 amine or outer side, 2 acyl side, 3 side chain; linkers in the order of their positions; H or OH if unused. Positions of bridges follow the written chain, without caps; N, C: chain ends. Non-standard residues stand in square brackets, D forms with d. Residues, ends and D or L forms follow the SMILES beside them. *: point of attachment. Abu(4-yl) = O=C([C@H](CC[*:3])N[*:1])[*:2]; 2Nal = N[C@@H](Cc1ccc2ccccc2c1)C(=O)O; AEF = NCCOc1ccc(C[C@H](N)C(=O)O)cc1; Pen = CC(C)(S)[C@H](N)C(=O)O; Thp = NC1(C(=O)O)CCOCC1; Aib = CC(C)(N)C(=O)O; X6 = c1cc(N*)n[nH]1
Decide using IC50 alone. Strictly below 20 nM: fulfilled. Equal to or above 20 nM: not fulfilled.

Threshold test, IC50 < 20 nM: CC(=O)NCCCC[C@@H]1NC(=O)[C@H](Cc2c[nH]c3ccccc23)NC(=O)[C@H]([C@@H](C)O)NC(=O)[C@H](CC(N)=O)NC(=O)[C@@H](NC(C)=O)CSSC[C@@](C)(C(=O)N[C@@H](Cc2ccc(OCCN)cc2)C(=O)N[C@@H](Cc2ccc3ccccc3c2)C(=O)N[C@@](C)(CCCCN)C(=O)N[C@@H](CCCCNC(C)=O)C(=O)N[C@@H](CC(N)=O)C(=O)N[C@@](C)(Cc2ccccc2)C(N)=O)NC1=O not fulfilled

# TODO verify IC50 < 20 nM strictly for this compound: COc1ccc(C[C@H](NC(=O)[C@@H]2CSCC[C@H](NC(=O)[C@H](N)CCCNC(=N)N)C(=O)N[C@@H](CCC(N)=O)C(=O)N[C@@H]([C@@H](C)O)C(=O)N[C@@H](Cc3c[nH]c4ccccc34)C(=O)N[C@@H](CCC(N)=O)C(=O)N2)C(=O)N[C@@H](Cc2ccc3ccccc3c2)C(=O)NC2(C(=O)N[C@@H](CCC(=O)O)C(=O)N[C@@H](CC(N)=O)C(=O)NC3(C(N)=O)CCOCC3)CCOCC2)cc1 not fulfilled

Strictly below 20 nM in IC50? CC(=O)N[C@H](CCCNC(=N)N)C(=O)N[C@H]1CCSC[C@@H](C(=O)N[C@@H](Cc2ccc(OCCN)cc2)C(=O)N[C@@H](Cc2ccc3ccccc3c2)C(=O)NC2(C(=O)NC(C)(C)C(=O)N[C@@H](CC(N)=O)C(=O)N[C@@H](Cc3ccccc3)C(N)=O)CCOCC2)NC(=O)[C@H](CCC(N)=O)NC(=O)[C@H](Cc2c[nH]c3ccccc23)NC(=O)[C@H]([C@@H](C)O)NC(=O)[C@H](CCC(N)=O)NC1=O [Compound 49] (Ac-[dR][Abu(4-yl)]QTWQC[AEF][2Nal][Thp][Aib]NF-NH2; thioether 2-7) fulfilled

Record CC(=O)N[C@H](CCCNC(=N)N)C(=O)N[C@@H]1C(=O)N[C@@H](CCC(N)=O)C(=O)N[C@@H]([C@@H](C)O)C(=O)N[C@@H](Cc2c[nH]c3ccccc23)C(=O)N[C@@H](CCC(N)=O)C(=O)N[C@H](C(=O)N[C@@H](Cc2ccc(OCCN)cc2)C(=O)N[C@@H](Cc2ccc3ccccc3c2)C(=O)NC2(C(=O)N[C@@H](CCC(=O)O)C(=O)N[C@@H](CC(N)=O)C(=O)N[C@@H](CC(=O)Nc3cc[nH]n3)C(N)=O)CCOCC2)C(C)(C)SSC1(C)C [Compound 133] (Ac-[dR][Pen]QTWQ[Pen][AEF][2Nal][Thp]END(X6)-NH2; disulfide 2-7) : is its IC50 strictly below 20 nM? not fulfilled

Is 20 nM strictly greater than the compound's reported IC50? compound: CC(=O)N[C@H](CCCNC(=N)N)C(=O)N[C@H]1CCSC[C@@H](C(=O)N[C@@H](Cc2ccc(OCCN)cc2)C(=O)N[C@@H](Cc2ccc3ccccc3c2)C(=O)NC2(C(=O)N[C@@](C)(CCC(=O)O)C(=O)N[C@@H](CC(N)=O)C(=O)N[C@@](C)(Cc3ccc(F)cc3)C(N)=O)CCOCC2)NC(=O)[C@H](CCC(N)=O)NC(=O)[C@H](Cc2c[nH]c3ccccc23)NC(=O)[C@H]([C@@H](C)O)NC(=O)[C@H](CCC(N)=O)NC1=O fulfilled
